- Measured Target: T1, human IL-17A (human, UniProt Q16552 24-155)
- T1 construct: secreted form (GenBank U32659) expressed in Hek293 with C-terminal 6-His; also called hIL-17A; IL-17A-6HIS
- T1 sequence (Q16552 other isoform, or with tags, fused parts or gaps): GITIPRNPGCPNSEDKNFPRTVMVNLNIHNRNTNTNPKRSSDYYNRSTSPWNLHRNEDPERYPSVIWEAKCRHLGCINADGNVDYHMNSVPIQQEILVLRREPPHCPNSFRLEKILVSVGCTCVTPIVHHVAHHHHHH
- Test Summary: competition ELISA IL17A-RA

# Binder, Unit Annotation, IC50
records = [
    ("13B03 (VHH, Class 4; also called IL17MS13B03) VHH: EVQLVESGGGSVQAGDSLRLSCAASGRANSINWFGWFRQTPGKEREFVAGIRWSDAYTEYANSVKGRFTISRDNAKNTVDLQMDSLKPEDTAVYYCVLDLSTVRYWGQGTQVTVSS", "nM", 0.121),
    ("SH-Fc-(GS)2-13B03 (Fc fusion, not shown: a dimerising Fc or GST; small tags and cut ends, also called MSB0010618; SH-(GS)2-Fc-13B03) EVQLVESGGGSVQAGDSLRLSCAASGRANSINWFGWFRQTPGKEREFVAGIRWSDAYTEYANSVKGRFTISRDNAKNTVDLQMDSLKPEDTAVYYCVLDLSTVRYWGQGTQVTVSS", "nM", 0.044),
]
